# system_name: mouse Mcl-1 with truncations of 151 amino acid residues at its N-terminus and 23 residues at its C-terminus (mouse) (UniProt P97287)
# Sequence (P97287 152-308): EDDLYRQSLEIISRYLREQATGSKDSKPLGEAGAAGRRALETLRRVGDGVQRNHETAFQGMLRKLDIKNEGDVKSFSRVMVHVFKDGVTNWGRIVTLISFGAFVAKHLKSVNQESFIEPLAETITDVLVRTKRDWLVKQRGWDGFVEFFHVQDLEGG
# method_notes: competition phage ELISA
FLAG = FLAG tag
The following binders are listed with their measured log10 of IC50 values.
parameter: log10 of IC50 (log10 of the value in nM)

> print(dat)
                                      binder  result.value
 1  QEDIARNIARHLAQVGDSMDRSIPPG [Bid BH3 I5A, phage-displayed]          2.16
 2  QEDIIRNIARHLAAVGDSMDRSIPPG [Bid BH3 Q14A, phage-displayed]          2.09
 3  {FLAG}-RAEAPPEFAAQLRKIGDKVYCTWSAP-{GGGT-g3(249-406)} [mNoxaA BH3 L4A, phage-displayed]          1.38
 4  PSSTMGQVGRQAAIIGDDINRRYDSE [Bak BH3 L12A, phage-displayed]          2.62
 5  PSSTMGQVGRQLAIAGDDINRRYDSE [Bak BH3 I15A, phage-displayed]          2.71
 6  QEDIIRNIARHLAQVGDSMDASIPPG [Bid BH3 R21A, phage-displayed]          2.12
 7  {FLAG}-RAELPPEFAAQLRKIGDKVYCTWAAP-{GGGT-g3(249-406)} [mNoxaA BH3 S24A, phage-displayed]          1.11
 8  {FLAG}-RAALPPEFAAQLRKIGDKVYCTWSAP-{GGGT-g3(249-406)} [mNoxaA BH3 E3A, phage-displayed]          1.48
 9  PSSTMGQVGRQLAIIGDDINRRYDSA [Bak BH3 E26A, phage-displayed]          1.00
10  {FLAG}-RAELPPAFAAQLRKIGDKVYCTWSAP-{GGGT-g3(249-406)} [mNoxaA BH3 E7A, phage-displayed]          1.63
11  PSSTMGQVGRALAIIGDDINRRYDSE [Bak BH3 Q11A, phage-displayed]          1.20
12  QEDIIRNIARHLAQVGDSMDRSIPPE [Bid BH3 G26E, phage-displayed]          1.97
13  PSSTMEQVGRQLAIIGDDINRRYDSE [Bak BH3 G6E, phage-displayed]          1.04
14  QEDIIRAIARHLAQVGDSMDRSIPPG [Bid BH3 N7A, phage-displayed]          1.73
15  QEDIIRNIARHLAQVGDAMDRSIPPG [Bid BH3 S18A, phage-displayed]          2.02
16  {FLAG}-RAELPPEAAAQLRKIGDKVYCTWSAP-{GGGT-g3(249-406)} [mNoxaA BH3 F8A, phage-displayed]          1.38
17  PSSTMGAVGRQLAIIGDDINRRYDSE [Bak BH3 Q7A, phage-displayed]          1.30
18  QEAIIRNIARHLAQVGDSMDRSIPPG [Bid BH3 D3A, phage-displayed]          1.98
19  PSSTMGQVGRQLAIIGDDIARRYDSE [Bak BH3 N20A, phage-displayed]          1.36
20  QEDIIRNIAAHLAQVGDSMDRSIPPG [Bid BH3 R10A, phage-displayed]          2.11
21  PSSTMGQVGRQLAIIGDAINRRYDSE [Bak BH3 D18A, phage-displayed]          1.15
22  QADIIRNIARHLAQVGDSMDRSIPPG [Bid BH3 E2A, phage-displayed]          2.15
23  QEDIIRNIARALAQVGDSMDRSIPPG [Bid BH3 H11A, phage-displayed]          1.95
24  {FLAG}-AAELPPEFAAQLRKIGDKVYCTWSAP-{GGGT-g3(249-406)} [mNoxaA BH3 R1A, phage-displayed]          1.30
25  PSSTMGQVGRQLAIIGDDINRRYDAE [Bak BH3 S25A, phage-displayed]          1.26
26  PSSTMGQVGAQLAIIGDDINRRYDSE [Bak BH3 R10A, phage-displayed]          1.46

Sourced from patent US20090048164A1
